System: RSV (Long)
assay_text: RSV cytopathic effect (CPE)-based viral replication assay
Assay type: cell-based, respiratory syncytial virus (RSV)
condition_summary: HEp-2 cells infected with RSV Long at MOI 0.015; 3 days at 37° C.; cell viability by CellTiter-Glo luminescence; read-out: EC50 (nm)
Procedure: Example A: RSV Cytopathic Effect Compounds of the invention are initially tested in a cytopathic effect (CPE)-based viral replication assay using immortalized cells and a laboratory strain of RSV (Long). […] For the CPE assay, cells are infected at a Multiplicity of Infection (MOI) of 0.015 using 20 μL of RSV Long (ATCC) diluted in assay media. […] Cell viability is evaluated with the addition of 10 μL of CellTiter-Glo (ProMega). Luminescence is measured using an EnVision plate reader (Perkin Elmer). […]
Exercise: state measured log10 EC50 for each of the compounds provided.
Record value = log10 of EC50 given in nM.

O=C1N(Cc2ncc3ccccc3c2-c2ccc(F)nc2)c2ccccc2C12CC(NCCF)C2 (single isomer, unassigned) [Example 87-2]: 0.66
CS(=O)(=O)Nc1ccc(-c2c(CN3C(=O)C4(CN(C(=O)C5(N)CC5)C4)c4ccccc43)ncc3ccccc23)cc1 [Example 132b]: 0.71

# return log10 EC50 for each item in the list
1. CS(=O)(=O)N1CCC2(CC1)C(=O)N(Cc1ncc3ccccc3c1CCCCO)c1cnccc12 [Example 37c]
2. O=C1CC(c2c(Cn3c(=O)n(C4CC4)c4ccncc43)ncc3ccccc23)CN1 (stereo not shown) [Example 2020]

Output:
0.86
1.90

# return log10 EC50 for each item in the list
1. CS(=O)(=O)N1CC2(C1)C(=O)N(Cc1ncc3ccccc3c1CF)c1ccccc12 [Example 59]
2. CS(=O)(=O)N1CCC2(CC1)C(=O)N(Cc1ncc3ccccc3c1C1CNC(=O)C1)c1cnccc12 (stereo not shown) [Example 2041]

Output:
[0.76, 0.76]

So for COC(=O)NC1CC2(C1)C(=O)N(Cc1ncc3ccccc3c1-c1ccc(C#N)nc1)c1ccccc12 (stereo not shown) [Example 84-2] , the logged log10 EC50 turned out to be 0.65
